System: OVCAR-5 ovarian
assay notes: NCI-60 one-dose screen, 48 h (100 = growth as untreated, 0 = no growth, -100 = all killed)
run parameters: 10 µM unless noted
The panel holds about 83,000 compounds, 20% with a hit somewhere; the sample as a whole holds those more often.
observable: growth (%)

INSERT INTO measurements (molecule, val) VALUES
  ('CN1C(=O)N(C)C2C1NN=c1s/c(=C\c3ccc([N+](=O)[O-])cc3)c(=O)n12 (stereo not given)', 86.1),
  ('COc1cc(/C(C#N)=C/c2nc3c(N4CCOCC4)nc(Cl)nc3n2C)cc(OC)c1OC', 34.6),
  ('Cc1sc2ncnc(Sc3nc4ccccc4[nH]3)c2c1C', -58.6),
  ('COc1cccc2c1C=C1CCCCC3=Cc4c(OC)cccc4OC13O2', 63.9),
  ('CCOc1ccccc1CN1CCc2nc3cc(C(C)(C)C)[nH]n3c(=O)c2C1', 97.9),
  ('O=[N+]([O-])c1cc2c(ccc3occc32)o1', 72.7),
  ('CCN1C(=O)N(CC)C2C1NN=c1s/c(=C3\C(=O)N(C(C)C)c4ccccc43)c(=O)n12 (stereo not given)', 54.2),
  ('COc1ccc(Cn2c(Br)c3c(c2-c2cc(OC)c(OC)c(OC)c2)CCc2sc(NC(C)=O)nc2-3)cc1', 96.8),
  ('Cc1ccc(S(=O)c2ccc([N+](=O)[O-])c3nonc23)cc1 (stereo not given)', 118),
  ('Nc1cccc(Nc2cc(S(=O)(=O)O)c(N)c3c2C(=O)c2ccccc2C3=O)c1', 111);

Origin of the recorded values: PubChem BioAssay (NCI)
